- condition parameters: in chloroform, 303.25 K
recorded endpoint: solubility (mole fraction)
Give bare numbers.

Noted for `C=CC(=O)NCO` : its solubility (mole fraction) reads 0.0035

* * *

- condition parameters: in acetonitrile, 292.75 K
recorded endpoint: solubility (mole fraction)
One number for each entry.

Noted for `C=CC(=O)NCO` : its solubility (mole fraction) reads 0.041

* * *

- condition parameters: in dichloromethane, 285.55 K
recorded endpoint: solubility (mole fraction)

Noted for `C=CC(=O)NCO` : its solubility (mole fraction) reads 0.0023

* * *

- condition parameters: in acetonitrile, 279.15 K
recorded endpoint: solubility (mole fraction)
Give bare numbers.

Noted for `C=CC(=O)NCO` : its solubility (mole fraction) reads 0.0244

* * *

- condition parameters: in n-butyl acetate, 284.35 K
recorded endpoint: solubility (mole fraction)
Give bare numbers.

Noted for `C=CC(=O)NCO` : its solubility (mole fraction) reads 0.0055

* * *

- condition parameters: in dichloromethane, 282.95 K
recorded endpoint: solubility (mole fraction)
Numbers only.

Noted for `C=CC(=O)NCO` : its solubility (mole fraction) reads 0.0021

* * *

- condition parameters: in n-butyl acetate, 281.15 K
recorded endpoint: solubility (mole fraction)

Noted for `C=CC(=O)NCO` : its solubility (mole fraction) reads 0.0045

* * *

- condition parameters: in pyridine, 302.15 K
recorded endpoint: solubility (mole fraction)
Answers are plain numbers.

Noted for `C=CC(=O)NCO` : its solubility (mole fraction) reads 0.367

* * *

- condition parameters: in chloroform, 289.85 K
recorded endpoint: solubility (mole fraction)
Numbers only.

Noted for `C=CC(=O)NCO` : its solubility (mole fraction) reads 0.0019

* * *

- condition parameters: in toluene, 279.75 K
recorded endpoint: solubility (mole fraction)
Give bare numbers.

Noted for `C=CC(=O)NCO` : its solubility (mole fraction) reads 0.0004

* * *

- condition parameters: in ethyl acetate, 305.05 K
recorded endpoint: solubility (mole fraction)
Give bare numbers.

Noted for `C=CC(=O)NCO` : its solubility (mole fraction) reads 0.0351

* * *

- condition parameters: in furan, 297.25 K
recorded endpoint: solubility (mole fraction)

Noted for `C=CC(=O)NCO` : its solubility (mole fraction) reads 0.102

* * *

- condition parameters: in furan, 282.05 K
recorded endpoint: solubility (mole fraction)
Give bare numbers.

Noted for `C=CC(=O)NCO` : its solubility (mole fraction) reads 0.0515

* * *

- condition parameters: in n-butyl acetate, 288.95 K
recorded endpoint: solubility (mole fraction)

Noted for `C=CC(=O)NCO` : its solubility (mole fraction) reads 0.0073

* * *

- condition parameters: in toluene, 298.55 K
recorded endpoint: solubility (mole fraction)
Give bare numbers.

Noted for `C=CC(=O)NCO` : its solubility (mole fraction) reads 0.0014

* * *

- condition parameters: in pyridine, 286.95 K
recorded endpoint: solubility (mole fraction)
One number for each entry.

Noted for `C=CC(=O)NCO` : its solubility (mole fraction) reads 0.272

* * *

- condition parameters: in dichloromethane, 280.35 K
recorded endpoint: solubility (mole fraction)
Give bare numbers.

Noted for `C=CC(=O)NCO` : its solubility (mole fraction) reads 0.0019

* * *

- condition parameters: in toluene, 287.95 K
recorded endpoint: solubility (mole fraction)
Numbers only.

Noted for `C=CC(=O)NCO` : its solubility (mole fraction) reads 0.0008

* * *

- condition parameters: in ethyl acetate, 296.95 K
recorded endpoint: solubility (mole fraction)
Answers are plain numbers.

Noted for `C=CC(=O)NCO` : its solubility (mole fraction) reads 0.0248

* * *

- condition parameters: in furan, 291.45 K
recorded endpoint: solubility (mole fraction)
One number for each entry.

Noted for `C=CC(=O)NCO` : its solubility (mole fraction) reads 0.0789
